target: CHO-XBP1 luciferase reporter, IRE1-XBP1 UPR activation; test: XBP1 luciferase reporter activation – CHO-XBP1 cells, luminescence, counter-screen for apoptotic UPR arm activators, dose response (AID 489040);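 also: reporter read after six hours of compound exposure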
Active and inactive are the calls of the source.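 The calls were made as follows: active = mean half-maximal activating concentration from the dose-response fit at or below a set limit; inactive = the rest.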
assay-endpoint: EC50

> print(dat)
                         compound.structure                                       tgt  assay.endpoint            measured
1      CCOc1cc(NC(=O)CCl)c(OCC)cc1NC(=O)CCl  CHO-XBP1 luciferase reporter, IRE1-XBP1 UPR activation            EC50  > 80 µM (inactive)
2  CCc1ccc(N2C(=O)NC(=O)/C(=C\C=C\c3ccco3)C2=O)cc1  CHO-XBP1 luciferase reporter, IRE1-XBP1 UPR activation            EC50  > 80 µM (inactive)
3  CC(C)(C)C(=O)NC(=S)NNC(=O)c1ccc(-c2ccccc2)cc1  CHO-XBP1 luciferase reporter, IRE1-XBP1 UPR activation            EC50              9.6 µM
4  Cc1cccc(Cn2cc(/C=C/[N+](=O)[O-])c3ccccc32)c1  CHO-XBP1 luciferase reporter, IRE1-XBP1 UPR activation            EC50  > 80 µM (inactive)
5  O=C(Nc1nc(-c2ccc(F)c(F)c2)cs1)Nc1ccc(F)cc1F  CHO-XBP1 luciferase reporter, IRE1-XBP1 UPR activation            EC50  > 80 µM (inactive)

Consider the record given below.
Report EC50, nothing else, for this compound: `O=CC1=C(c2ccccc2)Oc2ccccc2O1`
> 80 µM (inactive)

----------
molecular target: CHO-XBP1 luciferase reporter, IRE1-XBP1 UPR activation; experiment: XBP1 luciferase reporter activation – CHO-XBP1 cells, luminescence, counter-screen for apoptotic UPR arm activators, dose response (AID 489040);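 also: reporter read after six hours of compound exposure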
Activity calls are given as the source filed them.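 The calls were made as follows: active = mean half-maximal activating concentration from the dose-response fit at or below a set limit; inactive = the rest.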
Give your call using only these classes: label 1 = active, label 0 = inactive

> print(dat)
                                   compound  qualitative.label
1  O=C(c1ccc(Cl)cc1)C(CN1CCCC1)c1ccccc1 (stereo not drawn)            label 0
2  CCOC(=O)c1cnc(Nc2nc3ccccc3o2)nc1CSC(=S)N(CC)CC            label 1
3              CC1(C)CCSC(/C=C/c2ccccc2)=N1            label 0
4  CCc1ccc2nc(N(CCCN(C)C)C(=O)c3ccc(S(=O)(=O)N4CCc5ccccc5C4)cc3)sc2c1            label 0
5  COc1ccc(C2Nc3ccc4ccccc4c3-c3c2c(=O)oc2ccccc32)cc1 (stereo not drawn)            label 1
6  O=C(CSc1nc2ccc(Nc3nc(N4CCOCC4)nc(N4CCOCC4)n3)cc2s1)Nc1ccccc1F            label 1

Which outcome was assigned to `COc1ccccc1-c1cc(C(F)(F)F)nc(S(=O)(=O)CCCC(=O)NCc2ccc(F)cc2)n1` in this test?
label 0

Which outcome was assigned to `O=[N+]([O-])c1ccc(C=Nc2ccc(Cl)c([N+](=O)[O-])c2)s1` in this test?
label 0

----------
target: CHO-XBP1 luciferase reporter, IRE1-XBP1 UPR activation; experiment: XBP1 luciferase reporter activation – CHO-XBP1 cells, luminescence, counter-screen for apoptotic UPR arm activators, dose response (AID 489040);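 also: reporter read after six hours of compound exposure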
Calls of active or inactive are those of the source.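 How the source made its calls: active means mean half-maximal activating concentration from the dose-response fit at or below a set limit; inactive means the rest.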
Give your call using only these classes: active, inactive

> print(dat)
                                   molecule  qualitative.label
1  O=[N+]([O-])c1ccc(Sc2cccc3cccnc23)c([N+](=O)[O-])c1           inactive
2             Cc1noc2ncnc(Sc3ccc(Br)cc3)c12           inactive

Which outcome was assigned to `Cc1ccc(S(=O)(=O)Nc2cccc3cccnc23)cc1` in this test?
inactive

Which outcome was assigned to `O=C(c1cccs1)N(C(=O)c1cccs1)c1ccc(Br)cn1` in this test?
active

Which outcome was assigned to CC1(C)CC(=O)C2=C(C1)Oc1nc3ccccc3cc1C2C(C#N)C#N (stereo not drawn) in this test?
inactive

Which outcome was assigned to CCSC1(SCC)N=C(N)C2(C#N)C(c3ccc(F)cc3)C12C#N (stereo not drawn) in this test?
inactive

----------
target: CHO-XBP1 luciferase reporter, IRE1-XBP1 UPR activation; assay: XBP1 luciferase reporter activation – CHO-XBP1 cells, luminescence, counter-screen for apoptotic UPR arm activators, dose response (AID 489040);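 also: reporter read after six hours of compound exposure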
Calls of active or inactive are those of the source.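 How the source made its calls: active means mean half-maximal activating concentration from the dose-response fit at or below a set limit; inactive means the rest.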
assay-endpoint: EC50

Known results for compounds:
> print(dat)
                                   compound            measured
1  Cc1ccc(C(=O)C(C(=O)/C=C/c2ccccc2)=C2SCCCS2)cc1  > 80 µM (inactive)
2  COc1ccc(/C=N/Nc2cc(C)nc(-n3nc(C)cc3C)n2)c(OC)c1  > 80 µM (inactive)
3  CCOc1cccc(C(=O)Nc2cccc(-c3nnc(-c4ccc(C)cc4)o3)c2)c1  > 80 µM (inactive)
4  CCOC(=O)C1=C(CCl)NC(=O)NC1c1ccc2c(c1)OCO2 (stereo unspecified)  > 80 µM (inactive)
5  O=[N+]([O-])c1ccc(N/N=C/c2cccc(O)c2O)c(S(=O)(=O)N2CCOCC2)c1            inactive

Report EC50, nothing else, for this compound: `COc1ccc2c(C(=O)CCl)c[nH]c2c1`
> 80 µM (inactive)

Report EC50, nothing else, for this compound: `Cc1ccc(C)c(N=Cc2c(O)c3ccccc3oc2=O)c1`
inactive

Report EC50, nothing else, for this compound: `CC(C)(C)c1ccc(/C=C(\c2nc3ccccc3[nH]2)S(=O)(=O)c2ccccc2)cc1`
> 80 µM (inactive)

Report EC50, nothing else, for this compound: `COc1ccc(OC)c(Nc2nc(-c3ccc(O)c(O)c3)cs2)c1`
> 80 µM (inactive)

Report EC50, nothing else, for this compound: `CSC(=S)N/N=C(\C)c1ccccc1`
> 80 µM (inactive)

Report EC50, nothing else, for this compound: `O=c1nc(Nc2cccc(Cl)c2)oc2cc(Cl)oc(=O)c12`
> 80 µM (inactive)

----------
Listed below: EC50 values for each entry.
target: CHO-XBP1 luciferase reporter, IRE1-XBP1 UPR activation; assay: XBP1 luciferase reporter activation – CHO-XBP1 cells, luminescence, counter-screen for apoptotic UPR arm activators, dose response (AID 489040);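 also: reporter read after six hours of compound exposure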
Activity calls are given as the source filed them.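 Rule for the calls: active = mean half-maximal activating concentration from the dose-response fit at or below a set limit; inactive = the rest.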

Known results for molecules:
molecule	EC50
COc1cc(OC)cc(C(=O)NC(=S)Nc2cc3oc4ccccc4c3cc2OC)c1	> 80 µM (inactive)
CN1/C(=C\C(=O)COC(=O)c2ccc(O)c(O)c2)C(C)(C)c2ccccc21	9.91 µM
CC(C)c1ccc(N2C(=O)NC(=O)/C(=C\C=C\c3ccco3)C2=O)cc1	> 80 µM (inactive)
Cc1ccc(C)c(NC(=O)/C(C#N)=C/c2cn(CC(=O)NCc3ccco3)c3ccccc23)c1	6.33 µM
N#CC(C#N)=C1C=CC=CN1/C(=C\c1ccccc1)C(=O)c1cccs1	> 80 µM (inactive)

Report EC50, nothing else, for this molecule: CCCCCOc1ccc(N2C(=O)CC(N(O)c3ccccc3)C2=O)cc1 (stereo not given)
> 80 µM (inactive)

Report EC50, nothing else, for this molecule: `N#C/C(=C\c1ccc(OCc2ccccc2)cc1)C(=O)Nc1nc2c(s1)CCN(Cc1ccccc1)C2`
> 80 µM (inactive)

Report EC50, nothing else, for this molecule: `O=C1C=CC(=O)C(C2=C3C(=O)N(CCc4ccccc4)CC(=O)N3CCC2)=C1`
> 80 µM (inactive)

----------
molecular target: CHO-XBP1 luciferase reporter, IRE1-XBP1 UPR activation; experiment: XBP1 luciferase reporter activation – CHO-XBP1 cells, luminescence, counter-screen for apoptotic UPR arm activators, dose response (AID 489040);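 also: reporter read after six hours of compound exposure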
The source made the active and inactive calls.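 The calls were made as follows: active = mean half-maximal activating concentration from the dose-response fit at or below a set limit; inactive = the rest.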
Give your call using only these classes: active, inactive

> print(dat)
                         compound.structure  qualitative.label
1  O=C(Nc1ccc(Cl)cc1)/C(=C/c1cccc(O)c1)c1nc2ccccc2s1           inactive
2           O=C(/C=C/Sc1ccccc1)c1ccc(Cl)cc1           inactive

Which outcome was assigned to `COC(=O)C(=Cc1ccc(OCc2ccc([N+](=O)[O-])cc2)c(OC)c1)C(=O)OC` in this test?
inactive

Which outcome was assigned to `Cc1cc(C)c2c(c1)/C(=c1/sc3n(c1=O)CN(c1ccccc1)CN=3)C(=O)N2` in this test?
inactive

Which outcome was assigned to `COc1ccc(N=c2oc3ccc(OC)cc3cc2-c2nc3ccccc3[nH]2)cc1` in this test?
active

Which outcome was assigned to `Cc1ccc(Cc2cnc(NC(=O)/C(C#N)=C/c3ccc(-c4ccc([N+](=O)[O-])cc4)o3)s2)cc1` in this test?
inactive

Which outcome was assigned to `Cc1ccc2nc(-c3ccc(O)c(O)c3)cn2c1` in this test?
inactive

Which outcome was assigned to `COc1cccc(N=Cc2c(O)c3ccccc3oc2=O)c1` in this test?
inactive

From: PubChem BioAssay AID489040
